- system-under-test: Homeodomain-interacting protein kinase 1 (Homo sapiens) (UniProt Q86Z02);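 further: values are mean percent inhibition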
- Sequence (Q86Z02 whole entry, looked up): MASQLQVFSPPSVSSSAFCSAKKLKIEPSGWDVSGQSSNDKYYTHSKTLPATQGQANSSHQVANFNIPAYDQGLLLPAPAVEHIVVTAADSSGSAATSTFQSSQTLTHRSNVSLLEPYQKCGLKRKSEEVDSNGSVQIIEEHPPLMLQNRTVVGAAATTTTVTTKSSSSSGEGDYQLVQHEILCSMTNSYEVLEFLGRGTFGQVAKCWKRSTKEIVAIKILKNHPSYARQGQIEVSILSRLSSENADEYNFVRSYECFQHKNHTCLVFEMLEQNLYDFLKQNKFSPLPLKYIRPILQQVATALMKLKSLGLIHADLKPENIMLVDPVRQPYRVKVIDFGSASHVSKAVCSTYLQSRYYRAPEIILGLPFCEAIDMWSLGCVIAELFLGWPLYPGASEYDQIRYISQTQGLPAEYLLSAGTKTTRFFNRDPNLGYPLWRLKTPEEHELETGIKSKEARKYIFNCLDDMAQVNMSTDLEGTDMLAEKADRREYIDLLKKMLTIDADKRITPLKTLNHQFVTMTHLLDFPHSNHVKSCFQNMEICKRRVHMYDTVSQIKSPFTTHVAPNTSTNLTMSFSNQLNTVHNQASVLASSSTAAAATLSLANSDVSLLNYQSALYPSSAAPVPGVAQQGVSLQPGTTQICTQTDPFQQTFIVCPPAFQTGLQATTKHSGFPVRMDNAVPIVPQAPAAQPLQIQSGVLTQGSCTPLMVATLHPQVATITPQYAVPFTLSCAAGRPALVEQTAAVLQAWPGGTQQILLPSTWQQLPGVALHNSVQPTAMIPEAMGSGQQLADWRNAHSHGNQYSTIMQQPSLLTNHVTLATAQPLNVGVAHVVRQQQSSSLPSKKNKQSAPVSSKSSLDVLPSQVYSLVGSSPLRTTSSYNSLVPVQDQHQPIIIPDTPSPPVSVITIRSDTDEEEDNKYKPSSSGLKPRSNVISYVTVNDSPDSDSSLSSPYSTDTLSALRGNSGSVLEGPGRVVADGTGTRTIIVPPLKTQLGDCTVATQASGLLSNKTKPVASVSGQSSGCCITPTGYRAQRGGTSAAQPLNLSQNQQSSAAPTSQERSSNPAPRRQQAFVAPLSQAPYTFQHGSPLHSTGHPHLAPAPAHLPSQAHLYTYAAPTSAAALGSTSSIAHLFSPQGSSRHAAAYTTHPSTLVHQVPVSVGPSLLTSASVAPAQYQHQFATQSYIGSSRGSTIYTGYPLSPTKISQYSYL
- run-parameters: at 1 µM
Consider the following molecules; for each one, report its inhibition.
Answers are plain numbers, in %.

Here is how some molecules turned out for inhibition.
INSERT INTO assay_data (molecule, data_value) VALUES
  ('CCn1c(-c2nonc2N)nc2c(C#CC(C)(C)O)nc(CN3CCCC3)cc21', 2.58),
  ('COc1ccc2cc(-c3c(-c4ccncc4)nc(-c4ccc([S+](C)[O-])cc4)n3C)ccc2c1 (stereo not given)', 1.99),
  ('O=C1Nc2ccc(C(=O)c3ccco3)cc2C1=Cc1cc(Cl)c(O)c(Cl)c1', 54.1);

Below are some molecules; for each one, tell me its inhibition.
1. COc1cc(C=NNc2ncnc3c2cnn3-c2ccccc2)ccc1O
2. Fc1cccc(COc2ccc(Nc3ncnc4sc(-c5cccs5)cc34)cc2Cl)c1
3. O=C1NC(=O)C(c2ccc(Cl)cc2)=C1Nc1ccc(Cl)c(C(=O)O)c1
4. Cc1ccc(C(=O)NC2CCCCC2)cc1-c1ccc(C(=O)NCC2CC2)cc1
5. COc1ccc(-c2ccncc2)cc1C(N)=O
6. Cc1ccc(NC(=O)c2ccnc(N3CCCC3)c2)cc1-c1ccc(C(=O)NCC2CC2)cc1
7. Fc1cccc(COc2ccc(Nc3ncnc4cc(-c5ccc[nH]5)sc34)cc2Cl)c1

[reply]
1. 28.3
2. 2.04
3. 4.29
4. 1.1
5. 3.84
6. -2.16
7. -2.5

Provide reported inhibition for each item, in the same order as listed.
1. COC(=O)Nc1nc2cc(Oc3ccc(NC(=O)Nc4cccc(C(=O)O)c4)cc3)ccc2[nH]1
2. NC(=O)c1ccc(-c2nc(-c3ccccn3)c(-c3ccc4c(c3)OCO4)[nH]2)cc1
3. O=C1NC(=O)C(N2CCc3ccccc32)=C1c1ccc(Cl)cc1
4. Cc1nn(C)c2cc(N(C)c3ccnc(Nc4cccc(S(N)(=O)=O)c4)n3)ccc12
5. CCn1c(-c2nonc2N)nc2cnc(Oc3cccc(NC(=O)c4ccc(OCCN5CCOCC5)cc4)c3)cc21
6. CS(=O)(=O)CCNCc1ccc(-c2ccc3ncnc(Nc4ccc(OCc5cccc(F)c5)c(C(F)(F)F)c4)c3c2)o1
7. O=C1NC(=O)C(c2ccccc2Cl)=C1Nc1cccc(O)c1

[reply]
0.32
2.8
1.33
-2.18
11.5
-2.73
7.57

Hi there! I need inhibition for each item below, if you can.
1. COc1cc(C)c(NC(=O)CN(C)C)cc1Nc1nc(Nc2cccc(F)c2C(N)=O)c2cc[nH]c2n1
2. CCn1c(-c2nonc2N)nc2ccncc21
3. Cc1cc(O)cc(C)c1/C=C/c1cncc(-c2nn[nH]n2)c1

[reply]
1: 60.6; 2: 0.47; 3: -1.96
